Listed compounds paired with reported log k′
# test method notes: Hydrophobicity by reverse phase HPLC (log k′, log k′w)
# Type: physicochemical
# condition context: mobile phase MeOH/H2O 80/20, 175–195 bar

>  <compound>
CCCCCCCC(=O)NCC(C)(C)/[N+]([O-])=C/c1ccc(CNC(=O)C(O)[C@H](O)[C@H](O[C@@H]2OC(CO)[C@H](O)[C@H](O)C2O)C(O)CO)cc1 (some centres unmarked)

>  <test result>
−0.6840

$$$$
>  <compound>
CCCCCCCCSCC(C)(C)/[N+]([O-])=C/c1ccc(CNC(=O)C(O)[C@H](O)[C@H](O[C@@H]2OC(CO)[C@H](O)[C@H](O)C2O)C(O)CO)cc1 (some centres unmarked)

>  <test result>
0.1140

$$$$
>  <compound>
CC(C)(CSCCC(F)(F)C(F)(F)C(F)(F)C(F)(F)C(F)(F)C(F)(F)F)/[N+]([O-])=C/c1ccc(CNC(=O)C(O)[C@H](O)[C@H](O[C@@H]2OC(CO)[C@H](O)[C@H](O)C2O)C(O)CO)cc1 (some centres unmarked)

>  <test result>
0.1119

$$$$
>  <compound>
CC(C)(CNC(=O)CCC(F)(F)C(F)(F)C(F)(F)C(F)(F)C(F)(F)C(F)(F)F)/[N+]([O-])=C/c1ccc(CNC(=O)C(O)[C@H](O)[C@H](O[C@@H]2OC(CO)[C@H](O)[C@H](O)C2O)C(O)CO)cc1 (some centres unmarked)

>  <test result>
−0.2562

$$$$

Let us examine a further case.
Fill in reported log k′ for this entry: CC(C)(C)[N+]([O-])=Cc1ccccc1 −0.5405
